procedure_summary: Acute toxicity in mice, intravenous
assay_context: mouse, in vivo, read-out: Dosage tolerated without death (acute toxicity)
readout_kind: MTD

Q: Fill in reported MTD for this entry: NCCC[C@@H](N)CC(=O)NCN [D-β-lysylmethanediamine]
Result: ≥ 250 mg/kg
